// data source = patent US20040127504A1

MEASURE: melting point

Oc1ccc(N2CCN(Cc3nc4ccccc4[nH]3)CC2)cc1 [Example 17] :: 206 to 209 °C
c1cnc(N2CCN(Cc3nc4ccccc4[nH]3)CC2)nc1 [Example 2] :: 198 to 200 °C
c1ccc2[nH]c(CN3CCN(c4nccs4)CC3)nc2c1 [Example 7] :: 203 to 205 °C
C[C@H]1CN(c2ccccn2)CCN1Cc1nc2ccccc2[nH]1 [Example 25] :: 149 to 151 °C
C[C@@H]1CN(c2ccccn2)CCN1Cc1nc2ccccc2[nH]1 [Example 26] :: 151 to 153 °C
Oc1ccccc1N1CCN(Cc2nc3ccccc3[nH]2)CC1 [Example 20] :: 208 to 216 °C
O=C(N1CCCC1)n1c(CN2CCN(c3ccccn3)CC2)nc2ccccc21 [Example 9] :: 120 to 121 °C
Oc1ccc(N2CCN(Cc3nc4ccccc4[nH]3)CC2)nc1 :: 144 to 145 °C

*Q* Name the recorded melting point of the molecule listed here: CSc1ccccc1N1CCN(Cc2nc3ccccc3[nH]2)CC1 [Example 18]
*A* 214 to 216 °C

*Q* Answer with reported melting point of N#Cc1ccccc1N1CCN(Cc2nc3ccccc3[nH]2)CC1 [Example 12]
*A* 236 to 237 °C

*Q* In one line, give reported melting point of the entry N#Cc1cccnc1N1CCN(Cc2nc3ccccc3[nH]2)CC1 [Example 4] .
*A* 208 to 210 °C

*Q* State its melting point for this molecule: Fc1cccnc1N1CCN(Cc2nc3ccccc3[nH]2)CC1 [Example 28]
*A* 210 to 212 °C

*Q* Name the recorded melting point of the item Clc1ccccc1N1CCN(Cc2nc3ccccc3[nH]2)CC1 [Example 13] in your answer.
*A* 245 to 246 °C

*Q* Give the reported value of melting point for this record: CC1CN(c2ccccn2)CCN1Cc1nc2ccccc2[nH]1 (stereo not shown) [Example 24]
*A* 207 to 209 °C

*Q* Specify measured melting point for CN(C)C(=O)n1c(CN2CCN(c3ccccn3)CC2)nc2ccccc21 [Example 10] .
*A* 174 to 176 °C

*Q* Tell me melting point reported for Fc1ccccc1N1CCN(Cc2nc3ccccc3[nH]2)CC1 [Example 14]
*A* 262 to 264 °C
